# test_method_notes: yeast display, Sf9 membrane polyspecificity reagent, FACS + sequencing; frameworks hold sequencing errors
observed_property: polyreactivity (PSR sort gate)

Use these answered entries as a reference point.
The value of polyreactivity (PSR sort gate) measured for the sequence QVQLVESGGGLVHAGCSLRLSCSASGRISGYAMGWYRQAPGKERELVAAISKSAARTYYADSVKGRFTISRDNAKNTVYLQMNSLKAEDTAVYYCAADKPYRYDYWGQGTQVTVSS turned out to be high polyreactivity

The value of polyreactivity (PSR sort gate) measured for the sequence QVQLVESGGGLVQAGGSLRLSCAASGSIFGKYAMGWYRQAPGKERELVAAITIRGGSTYYADSVKGRFTISRDNAKNTVYLQMNSLKPEDTAVYYCNAVSKYYFGVDYWGQGTQVTVSS turned out to be high polyreactivity

The value of polyreactivity (PSR sort gate) measured for the sequence QVQLVESGGGLVQAGGSLRLSCAASGIIFRNYAMGWYRQAPGKERELVAAISSNGGSTYYADSVKGRFTISRDNAKNTVYLQMNSLKPEDTAVYYCAARHSLYGYWGQGTQVTVSS turned out to be high polyreactivity

The value of polyreactivity (PSR sort gate) measured for the sequence QVQLVESGGGLVQAGGSLRLSCAASGRIFRYYAMGWYRQAPGKERELVASIARRGGSTNYADSVKGRFTISRDNAKNTVYVQMNSLKPEDTAVYYINAENWSPRGLYNYWGQGTQVTLSS turned out to be high polyreactivity

The value of polyreactivity (PSR sort gate) measured for the sequence QVQLVESGGGLVQAGGSLRLSCAASGFIFVPNTMGWYRQAPGKERELVAAITSVGSTNYADSVKGRFTISRDNAKNTVYLQMNSLKPEDTAVYYCPATLYYQYGGDYWGQGTQVTVSS turned out to be low polyreactivity

---
The value of polyreactivity (PSR sort gate) measured for the sequence QVQLVESGGGLVQAGGSLRLSCAASGSIFGFYAMGWYRQAPGKERELVAAISDSGDSTYYADSVKGRFTISRDNAKNTVYLQMNSLKPEDTAVYYCATDGRSNYYWGDYWGQGTQVTVSS turned out to be low polyreactivity

The value of polyreactivity (PSR sort gate) measured for the sequence QDQLVESGGGLVQAGGSLRLSCAASGRIFRYYTRGWYRQAPGKERELVAAIRWSGSTTYYADSVKGRFTISRDYAKNTVYLLMNSLKPEDTAVYYCDARWSYPRWEFDYWGQGTQVTVSS turned out to be high polyreactivity

The value of polyreactivity (PSR sort gate) measured for the sequence QVQLVESGGGLVQAGGSLRLSCAASGGTFENYPMGWYRQAPGKERELVAAISSGGSTNYADSVKGRFTISRDNAKNTVYLQMNSLKPEDTAVYYCARYRVWGSNGHKLFHYDYWGQGTQVTVSS turned out to be low polyreactivity

The value of polyreactivity (PSR sort gate) measured for the sequence QVQLVESGGGLVQAGGSLRLSCAASGITFRVYVMGWYRQAPGKERELVAAITRSGGRTYYADSVKGRFTISRDNAKNTVYLQMNSLKPEDTAVYYCAAEYDVYGIYEYDYWGQGTQVTVSS turned out to be high polyreactivity

The value of polyreactivity (PSR sort gate) measured for the sequence QVQLVESGGGLVQAGGSLRLSCDASGSIFATYAMGWYRQAPGKERELVAAIRRSTGTTYYADSVKGRFTISRDNAKNTVYLQMNSLKPEDTAVYYCAALFRPRVHRYDYWGQGTLVTVSS turned out to be low polyreactivity

The value of polyreactivity (PSR sort gate) measured for the sequence QVQLVESGGGLVQAGGSLRLSCAASGFIFGLYAMGWYRQAPGKERELVAAISWSGGSTYYADSVKGRFTISRDNAKNTVYLQMNSLKPEDTAVYYCAKRGGYGYEYYYWGQGTQVTVSS turned out to be high polyreactivity

The value of polyreactivity (PSR sort gate) measured for the sequence QVQLVESGGGLVQAGGSLRLSCAASGSIFIPNAMGWYRQAPGKERELVAAISLSDTTTYYADSVKGRFTISRDNAKNTVYLQMNSLKPEDTAVYYCAADYWFYPTSPVMDYWGQGTQVTVSS turned out to be low polyreactivity

---

# test_method_notes: yeast display, Sf9 membrane polyspecificity reagent, FACS + sequencing; frameworks hold sequencing errors
observed_property: polyreactivity (PSR sort gate)

Use these answered entries as a reference point.
The value of polyreactivity (PSR sort gate) measured for the sequence QVQLVESGGGLVQAGGSLRLSCAAFGRIFQYYAMGWYRQAPGKERELVAAITRSGGSTYYADSVKGRFTISRDNAKNTVYLQMNSLKPEDTAVYYCAAYSRYTVREGYDYWGQGTQVTVSS turned out to be high polyreactivity

The value of polyreactivity (PSR sort gate) measured for the sequence QVQLVESGGGLVQAGGSLRLSCAASGRIFYYYPMGWYRQAPGKEMELVARITGLTGRTYYADSVKGRFTISRDNSKNTVYLHMHSLKPQDTAVYYCAATDRWSRLGYWGQGTQVTVSS turned out to be high polyreactivity

The value of polyreactivity (PSR sort gate) measured for the sequence QVQLVESGGGLVQAGGSLRLSCAASGSIFERYAMVWYRQAPGKERELVAAISWSGSSTYYADSVKGRFTISRDNAKNTVYLQMNSLKPEDTAVYYCNKVWIDTGMEYWGQGTQVTVSS turned out to be low polyreactivity

The value of polyreactivity (PSR sort gate) measured for the sequence QVQLVESGGGLVQAVGSLRLSCAASGRTFYYYAMGWYRQAPGKERELVASITYYADSVKGRFTISRDNAKNTVYLQMKSLKPEDTAVYYCAARANSYHSFTSHYDYWGQGTQVSVSS turned out to be low polyreactivity

The value of polyreactivity (PSR sort gate) measured for the sequence QVQLVESGGGLVQAGGSLRLSSAASGSIFSQYDIGWYRPAPGKERQLVAAISSGGSTYYADSVKGRFTISRYNAKNTVYLQMNSLKPEDTAVYYCAAVYYQITTTHYLHLHYDYWGQGTQVTVSS turned out to be low polyreactivity

---
The value of polyreactivity (PSR sort gate) measured for the sequence QVQLVESGGGLVQAGGSLRLSCAASGRTIRYYAMGWYRQAPGKERELVAAITSGGSTYYADSVKGRFTISRDNAKNTVYLQMNSLKPEDTAVYYCAAARYEPFIYDYGYWGQGTQVTVSS turned out to be low polyreactivity

The value of polyreactivity (PSR sort gate) measured for the sequence QVQLQGSGGGLVQAGGSLRMSCAASAYIFQNVPKGLNRKEPGKERELVAGIDNGTSTNYADSVNGRFTISRDNAKNSVYLEMKSLKPVDTAVYYCAAAGQADDTLGYWGQGTQVTVSS turned out to be low polyreactivity

The value of polyreactivity (PSR sort gate) measured for the sequence QVQLVESGGRLVQAGGSLRLSCAASGYTFQRYAMGWYRQAPGKERELVAAISSSGGSTYYADSVKGRFTISRDNAKNTVYLQMNSLKPEDTAVFYCAVRFVSAWSRYDYWGQGTQVTVSS turned out to be high polyreactivity

---

# test_method_notes: yeast display, Sf9 membrane polyspecificity reagent, FACS + sequencing; frameworks hold sequencing errors
observed_property: polyreactivity (PSR sort gate)

The value of polyreactivity (PSR sort gate) measured for the sequence QVQLVESGGGLVQAGGSLRLSCAASGLTFHPYAMGWYRQAPGKERELVAAISSRGTSTYYADSVKGRFTISRDNAKNTVYLQMNSLKPEDTAVYYCAARHGPRAESMYYWGQCTQVTVSS turned out to be high polyreactivity

The value of polyreactivity (PSR sort gate) measured for the sequence QVQLVESGGGLVQAGGSLRLSCAASGIIFRYYTMGWYRQAPGTERELVAAITSGGSTNYADSVKGRFTISRDNAKNTVYLQMNSLKPEDTAVYYCRQFSVWGYDYWGQGTQVTVSS turned out to be high polyreactivity

The value of polyreactivity (PSR sort gate) measured for the sequence QVQLVESGGGLVQAGGSLRLSCAASGSTFDPNTMGWYRQAPGKERELVAAITSSTASTYYADSVKGRFTISRDNAKNTVYLQMNSLKPEDTAVYYCAADSEQDNLRYYRWVWYYYWGQGTQVTVSS turned out to be low polyreactivity

The value of polyreactivity (PSR sort gate) measured for the sequence QVQLVESGGGLVQAGGSLRLSCAASGSIFYIYAMGWYRQAPGKEREFVAAISWIGGSTYYADSVKGRFTISRDNAKNTVYLQMNSLKPEDTAVYYCAAETFTDYDYWGQGTQVTVSS turned out to be high polyreactivity

The value of polyreactivity (PSR sort gate) measured for the sequence QVQLVESGGGLVQAGGSLRLSCAASGITLGTYVMGWYRQAPGKERELVAAISSGGSTYYADSVKGRFTISRDNAKNTVYLQMNSLKPEDTAVYYCAAQYYPYYDSRVSYDYWGQGTQVTVSS turned out to be low polyreactivity

---
The value of polyreactivity (PSR sort gate) measured for the sequence QVHLVETGGGLVQAGGSLRLSCAASGITFDQYAMGWYRQAPGKERELVAAITGSGGNTYYADSVKGRFTISRDNAKNTVYLQMNSLKPEDTAVYSCGAAVGRARDYWGQGTQVTVSS turned out to be low polyreactivity

The value of polyreactivity (PSR sort gate) measured for the sequence QVQLVESGGGLVQAGGSLRLSCAASGRLFKDNAMGGYRQAPGKERELVATIDSGGDTNYADSVKGRFTISRDNAKNTVYLQMNSLKPEDTAVYYCNTAGRGGIPSGFDYWGQGTQVTVSS turned out to be low polyreactivity

The value of polyreactivity (PSR sort gate) measured for the sequence QVQLVESGGGLVQAGGSHRLSCASSGRTFYRNAMGWYRQPPGKERELVAAISSGTSTNYADSVKGRFTISRDNAKNTVYLQMNSLKPEDTAVYYCAKERPRGAPAYYSRIYDYWGQGTQVTVSS turned out to be high polyreactivity

The value of polyreactivity (PSR sort gate) measured for the sequence QVQLVESGGGLVQAGGSLRLSCAASGRISGSYVMGWYRQAPGKESELVAGISGRGGSTYYADSVKGRFTISRDNAKNTVYLQMYSLKPEDTAVYYCAVVDRTSKGNSYYWGQGTQVTVSS turned out to be high polyreactivity

The value of polyreactivity (PSR sort gate) measured for the sequence QVQLVESGGGLVQAGGSLRLSCAASGSTFPPYAMGWYRQAPGKERDLVADITRRGASTYYADSVKGRFTISRDNAKNTVYLQMNSLKPEDTAVYYCAARYYYQYYSGFDYWGQGTQVTVSS turned out to be high polyreactivity

The value of polyreactivity (PSR sort gate) measured for the sequence QGQLVESGGGLVQAGGSRRLSCAASGYSIDNNAMGWYRQAPGKEREVVASITNSAGSTSYADSVKGRFTISRDTAKNTVYLQMNSLKPEDTAVCYCSAKRYHYFFQYSRSGAYGYWGHGTQVTVSS turned out to be high polyreactivity

The value of polyreactivity (PSR sort gate) measured for the sequence QVQLVESGGGLVQAGGSLRLSCAASGITFTWYGMGWYRQAPGKERELVAAISLTGARTYYADSVKGRFTISRDNAKNTVYLQMNSLKPEDTAVYYCNARPQGRGGTYLPRYDYWGQGTQVTVSS turned out to be high polyreactivity

The value of polyreactivity (PSR sort gate) measured for the sequence QVQLVESGGGLVQAGGSLRLSCAASGSTFYVYAMGWYRKAPGKEREFVAVITTSGGTTYYADSVKGRFTISRDNAKNTVYLQMNSLKPEDTAVYYCNAGVGYYSLPYDYWGQGTQVTVSS turned out to be low polyreactivity
